Listed below: protein stability index values for each entry.
System: Saccharomyces cerevisiae
Assay: protein stability index of tFT-peptide fusion (C-terminal peptide) (PSI (0-1 scale)); higher = more stable (slower turnover)
Conditions: genetic background: das1 deletion; temperature: 30 C
value_kind: protein stability index

[
  {
    "sequence_content": "VMGQFLPIFEMD [GSM1 C-terminal 12 aa]",
    "observed_value": 0.724
  },
  {
    "sequence_content": "SRIYQTFTDPSN [ADY4 C-terminal 12 aa]",
    "observed_value": 0.729
  },
  {
    "sequence_content": "YANAPIEEKPLI [PUN1 C-terminal 12 aa]",
    "observed_value": 0.702
  },
  {
    "sequence_content": "NIAPFPFFGKRR [PMD1 C-terminal 12 aa]",
    "observed_value": 0.684
  },
  {
    "sequence_content": "KKKFYKQYHFDL [PDR8 C-terminal 12 aa]",
    "observed_value": 0.715
  },
  {
    "sequence_content": "ELWYKSFGPHDE [APC1 C-terminal 12 aa]",
    "observed_value": 0.7
  },
  {
    "sequence_content": "YKAVSVSANSPE [SOG2 C-terminal 12 aa]",
    "observed_value": 0.689
  },
  {
    "sequence_content": "DWVSHGGDKLDL [RDL1 C-terminal 12 aa]",
    "observed_value": 0.703
  },
  {
    "sequence_content": "SSNTVYDNILVT [YDR034C-A C-terminal 12 aa]",
    "observed_value": 0.721
  },
  {
    "sequence_content": "SKGAQKRKNAKK [SHR3 C-terminal 12 aa]",
    "observed_value": 0.682
  },
  {
    "sequence_content": "QKYQVYKNFETL [UTR4 C-terminal 12 aa]",
    "observed_value": 0.7
  },
  {
    "sequence_content": "PRSDDEDDEDSE [FAP7 C-terminal 12 aa]",
    "observed_value": 0.683
  },
  {
    "sequence_content": "TLLNAQKEALKK [APT1 C-terminal 12 aa]",
    "observed_value": 0.67
  },
  {
    "sequence_content": "KCEEVNDGLRWK [EHD3 C-terminal 12 aa]",
    "observed_value": 0.696
  },
  {
    "sequence_content": "YRIIDCVIAQLP [NVJ3 C-terminal 12 aa]",
    "observed_value": 0.669
  },
  {
    "sequence_content": "GEEKKHLKMASP [MDE1 C-terminal 12 aa]",
    "observed_value": 0.691
  },
  {
    "sequence_content": "PAKFGIQFQYST [MDM10 C-terminal 12 aa]",
    "observed_value": 0.697
  },
  {
    "sequence_content": "YIKKSAKKGDKN [YHR140W C-terminal 12 aa]",
    "observed_value": 0.676
  },
  {
    "sequence_content": "LVEGQTFDADVE [EGD1 C-terminal 12 aa]",
    "observed_value": 0.691
  },
  {
    "sequence_content": "LSTFFLFHNPCN [YGL239C C-terminal 12 aa]",
    "observed_value": 0.762
  },
  {
    "sequence_content": "CFSCFHLSTHTN [YDR157W C-terminal 12 aa]",
    "observed_value": 0.725
  },
  {
    "sequence_content": "EQITSSLQEASE [FSH1 C-terminal 12 aa]",
    "observed_value": 0.67
  },
  {
    "sequence_content": "CFWRMICSEPKL [YAR064W C-terminal 12 aa]",
    "observed_value": 0.736
  },
  {
    "sequence_content": "NKRLKKILNNTK [RME1 C-terminal 12 aa]",
    "observed_value": 0.702
  },
  {
    "sequence_content": "RCNVYIIRCIHH [YOL164W-A C-terminal 12 aa]",
    "observed_value": 0.518
  }
]

====

Test system: Saccharomyces cerevisiae
Assay: protein stability index of tFT-peptide fusion (C-terminal peptide) (PSI (0-1 scale)); higher = more stable (slower turnover)
Details: genetic background: das1 deletion; temperature: 30 C
# binarize protein stability index: threshold 0.7 inclusive, high side Met, low side Not met

[
  {
    "sequence_content": "IIQDNISPRLVV [RRP46 C-terminal 12 aa]",
    "tested_on": "Saccharomyces cerevisiae",
    "label": "Not met"
  },
  {
    "sequence_content": "CAVGGPEKLKFY [BUD3 C-terminal 12 aa]",
    "tested_on": "Saccharomyces cerevisiae",
    "label": "Met"
  }
]

====

System: Saccharomyces cerevisiae
Assay: protein stability index of tFT-peptide fusion (C-terminal peptide) (PSI (0-1 scale)); higher = more stable (slower turnover)
Settings: genetic background: das1 deletion; temperature: 30 C

[
  {
    "sequence_content": "YNGGGKKLDGFW [YSP3 C-terminal 12 aa]",
    "tested_on": "Saccharomyces cerevisiae",
    "protein stability index": 0.701
  },
  {
    "sequence_content": "RFRVVLGDSDDE [PSH1 C-terminal 12 aa]",
    "tested_on": "Saccharomyces cerevisiae",
    "protein stability index": 0.672
  },
  {
    "sequence_content": "IAEIASAVDKYS [MHT1 C-terminal 12 aa]",
    "tested_on": "Saccharomyces cerevisiae",
    "protein stability index": 0.718
  },
  {
    "sequence_content": "MDNKQQLSSGRT [SNA3 C-terminal 12 aa]",
    "tested_on": "Saccharomyces cerevisiae",
    "protein stability index": 0.709
  },
  {
    "sequence_content": "KKNRSGLRHSES [SQS1 C-terminal 12 aa]",
    "tested_on": "Saccharomyces cerevisiae",
    "protein stability index": 0.683
  },
  {
    "sequence_content": "RPDSTAPSNENQ [PEP1 C-terminal 12 aa]",
    "tested_on": "Saccharomyces cerevisiae",
    "protein stability index": 0.726
  }
]

====

Test system: Saccharomyces cerevisiae
Assay: protein stability index of tFT-peptide fusion (C-terminal peptide) (PSI (0-1 scale)); higher = more stable (slower turnover)
Details: genetic background: cdc53-1; temperature: 37 C
Hi all, reminder that labels come from protein stability index, split as lower: < 0.3; middle: ≥ 0.3 and < 0.5; upper: ≥ 0.5

[
  {
    "sequence_content": "IYPPVSVTNLLV",
    "label": "upper"
  },
  {
    "sequence_content": "FFLFILYFGSCF",
    "label": "middle"
  },
  {
    "sequence_content": "GLYMCSVGCWFR",
    "label": "lower"
  },
  {
    "sequence_content": "LGFFIFSFLILK",
    "label": "lower"
  },
  {
    "sequence_content": "VPPGCSLFAFIL",
    "label": "upper"
  },
  {
    "sequence_content": "LLILSLLVLSSR",
    "label": "middle"
  },
  {
    "sequence_content": "GIPVRRLLFLVA",
    "label": "middle"
  },
  {
    "sequence_content": "IFVLLSYYPLFV",
    "label": "lower"
  },
  {
    "sequence_content": "ASGFLVIPLWVF",
    "label": "middle"
  }
]

====

Test system: Saccharomyces cerevisiae
Experiment: protein stability index of tFT-peptide fusion (C-terminal peptide) (PSI (0-1 scale)); higher = more stable (slower turnover)
Conditions: genetic background: wild type; temperature: 30 C
Returns 1 if the recorded protein stability index is greater than or equal to 0.7, and -1 otherwise.

[
  {
    "sequence_content": "PPRARPRLPPGA",
    "tested_on": "Saccharomyces cerevisiae",
    "label": -1
  },
  {
    "sequence_content": "LFVSPRPFRSVL",
    "tested_on": "Saccharomyces cerevisiae",
    "label": 1
  },
  {
    "sequence_content": "LPSLHPPPSPQP",
    "tested_on": "Saccharomyces cerevisiae",
    "label": 1
  },
  {
    "sequence_content": "RFCRAFSGALSR",
    "tested_on": "Saccharomyces cerevisiae",
    "label": 1
  },
  {
    "sequence_content": "PPSPRNSDPPPL",
    "tested_on": "Saccharomyces cerevisiae",
    "label": -1
  },
  {
    "sequence_content": "KTKNEKHPKTTK",
    "tested_on": "Saccharomyces cerevisiae",
    "label": 1
  },
  {
    "sequence_content": "GKYQQGFQKVTR",
    "tested_on": "Saccharomyces cerevisiae",
    "label": -1
  },
  {
    "sequence_content": "IVCLWVAGHFGL",
    "tested_on": "Saccharomyces cerevisiae",
    "label": -1
  },
  {
    "sequence_content": "GSNRTLSLYCVG",
    "tested_on": "Saccharomyces cerevisiae",
    "label": -1
  },
  {
    "sequence_content": "PLFPSPSPPRHP",
    "tested_on": "Saccharomyces cerevisiae",
    "label": 1
  },
  {
    "sequence_content": "SGSSRVGWLEGW",
    "tested_on": "Saccharomyces cerevisiae",
    "label": -1
  },
  {
    "sequence_content": "HVVSSGFLVGLG",
    "tested_on": "Saccharomyces cerevisiae",
    "label": -1
  },
  {
    "sequence_content": "GEVILERKRRKI",
    "tested_on": "Saccharomyces cerevisiae",
    "label": -1
  },
  {
    "sequence_content": "VLSFLSSFFVRV",
    "tested_on": "Saccharomyces cerevisiae",
    "label": -1
  },
  {
    "sequence_content": "GGCRGDGMMGVG",
    "tested_on": "Saccharomyces cerevisiae",
    "label": -1
  },
  {
    "sequence_content": "GGPPSPPFFDAV",
    "tested_on": "Saccharomyces cerevisiae",
    "label": 1
  },
  {
    "sequence_content": "LVPSPLIFPSLG",
    "tested_on": "Saccharomyces cerevisiae",
    "label": 1
  },
  {
    "sequence_content": "GVVLVARVTGSS",
    "tested_on": "Saccharomyces cerevisiae",
    "label": -1
  },
  {
    "sequence_content": "PFAPSPRPPQPP",
    "tested_on": "Saccharomyces cerevisiae",
    "label": -1
  },
  {
    "sequence_content": "QMSAATLLFSRL",
    "tested_on": "Saccharomyces cerevisiae",
    "label": 1
  },
  {
    "sequence_content": "GSWIGGSVIGGQ",
    "tested_on": "Saccharomyces cerevisiae",
    "label": 1
  },
  {
    "sequence_content": "LFWPPCYLFFCL",
    "tested_on": "Saccharomyces cerevisiae",
    "label": -1
  },
  {
    "sequence_content": "PVVTGGFHIVGF",
    "tested_on": "Saccharomyces cerevisiae",
    "label": 1
  },
  {
    "sequence_content": "GGFRDIAYCLVP",
    "tested_on": "Saccharomyces cerevisiae",
    "label": -1
  },
  {
    "sequence_content": "NRCIRIQETVRI",
    "tested_on": "Saccharomyces cerevisiae",
    "label": -1
  },
  {
    "sequence_content": "HFAMCSTTFVIT",
    "tested_on": "Saccharomyces cerevisiae",
    "label": -1
  }
]
